system: Plasmodium falciparum; experiment: Screen against P. falciparum Asexual Blood Stage (ABS), at 5uM; assay type: functional, Dd2; conditions: tested at 5 uM
The campaign covered roughly 65,000 compounds. About 2,100 (3.2%) showed an effect of 50% or more. The median lay at about -52%. The full list was thinned out, with strong results kept by preference.
Decide using INHIBITION alone. Strictly below -40%: fulfilled. Equal to or above -40%: not fulfilled.

For orientation, consider the following solved cases.
# compound, test_system, label_value
records = [
    ("CC(C)NC(=O)NC[C@H]1C[C@@H]2CCN1C[C@@H]2CN(C)c1ccccc1", "Plasmodium falciparum", "not fulfilled"),
    ("CC[C@H]1CN2CC[C@H]1C[C@@H]2CNC(=O)Nc1cc(OC)cc(OC)c1", "Plasmodium falciparum", "not fulfilled"),
    ("Cc1ccc(CNC(CN2CCN(C)CC2)c2ccccc2)cc1 (stereo not drawn)", "Plasmodium falciparum", "not fulfilled"),
    ("Cn1cc(CN2C[C@@H]3OCCN(c4ncccn4)[C@@H]3C2)cn1", "Plasmodium falciparum", "fulfilled"),
    ("Cn1cc(CN2CCC[C@]3(C[C@H](Oc4ccccn4)CO3)C2)cn1", "Plasmodium falciparum", "not fulfilled"),
    ("O=C1[C@H]2CN(C3CCOCC3)C[C@H]2CN1Cc1ccncc1", "Plasmodium falciparum", "not fulfilled"),
]

Problem: Strictly below -40% in INHIBITION? CCO[C@@H]1CC[C@H]2[C@H]1OCCN2Cc1ccoc1
Solution: fulfilled

Problem: Could you please tell me whether INHIBITION recorded for Cc1nc(-c2ccccc2F)sc1C(=O)N1CCC(=O)CC1 is less than -40%?
Solution: fulfilled

Problem: Field: below-cutoff. Rule: recorded INHIBITION strictly less than -40%. Subject: Fc1cccnc1O[C@H]1CN(Cc2ccoc2)[C@@H]2CCCO[C@H]12
Solution: not fulfilled

Problem: Say whether its INHIBITION is strictly beneath -40%. Entry: CC(C)C1CCCN1C(=O)c1ccc(-n2ncc(C#N)c2N)cc1 (stereo not drawn)
Solution: not fulfilled

Problem: Criterion: INHIBITION strictly below -40%. Is it met by CO[C@@H]1CCN(C2CCOCC2)C[C@@H]1Cc1ccccc1 ?
Solution: not fulfilled

Problem: For the compound CC1CCN(C[C@H]2CN3CC[C@H]2C[C@@H]3CNC(=O)c2ccco2)CC1 , is INHIBITION under -40%?
Solution: not fulfilled

Problem: Strictly below -40%: is that where INHIBITION of CC1CCN(CC(=O)N(Cc2ccccc2)Cc2nccs2)C1=O (stereo not drawn) sits?
Solution: fulfilled
